Form field: binding signal (one value per entry).
SUBJECT OF TEST: MBP-FoxP3dN (Mus musculus, UniProt Q99JB6 188-423)
Sequence: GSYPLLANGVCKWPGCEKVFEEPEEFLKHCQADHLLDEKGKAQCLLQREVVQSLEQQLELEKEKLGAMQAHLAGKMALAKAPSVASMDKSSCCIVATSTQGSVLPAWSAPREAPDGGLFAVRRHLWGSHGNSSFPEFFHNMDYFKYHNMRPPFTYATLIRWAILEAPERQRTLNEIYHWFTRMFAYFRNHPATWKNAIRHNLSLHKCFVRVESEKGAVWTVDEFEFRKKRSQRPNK
ASSAY REMARKS: PD-seq (MBP pull-down with sequencing); 20 mM Tris-HCl pH 7.5, 100 mM NaCl, 1.5 mM MgCl2, 0.4 uM protein, 0.1 uM dsDNA library, 30 min, room temperature, amylose pull-down; high values mean tight binding
RECORDED CONDITIONS: protein: recombinant; tags: His6-MBP; chain copies: 2; dsDNA, one strand shown
The full ranking holds about 16,000 sequences; the median of “rpm ratio (pull-down/input)” is about 0.5, and the highest 2% start at about 5.5. Shown is part of a subset that was picked to be rich in the highest values.

In the examples that follow, each entry is paired with its recorded binding signal.
1. GATGATTGTTCTCCCAGCTGATGAATTTTATTTCTCGAGTAAACAAATTTTCCTAATCTTTCTGTTCAAGCGCCATCTAC 1.53 RPM ratio (pull-down/input)
2. GATGATTGTTCTCCCAGCTGATGAATTATCAGAGTCGAGTAAACAAATTTTCCTAATCTTTCTGTTCAAGCGCCATCTAC 0.249 RPM ratio (pull-down/input)
3. GATGATTGTTCTCCCAGCTGATGAATTCAGCATTTCGAGTAAACAAATTTTCCTAATCTTTCTGTTCAAGCGCCATCTAC 5.86 RPM ratio (pull-down/input)
4. GATGATTGTTCTCCCAGCTGATGAATTATGCCTATCGAGTAAACAAATTTTCCTAATCTTTCTGTTCAAGCGCCATCTAC 2.91 RPM ratio (pull-down/input)
5. GATGATTGTTCTCCCAGCTGATGAATTTCACGAATCGAGTAAACAAATTTTCCTAATCTTTCTGTTCAAGCGCCATCTAC 0.212 RPM ratio (pull-down/input)

Asked: Find the recorded binding signal belonging to GATGATTGTTCTCCCAGCTGATGAATTGAAAACATCGAGTAAACAAATTTTCCTAATCTTTCTGTTCAAGCGCCATCTAC and report it.
Given back: 1.27 RPM ratio (pull-down/input)

Asked: What do we get for GATGATTGTTCTCCCAGCTGATGAATTAGTTTGCTCGAGTAAACAAATTTTCCTAATCTTTCTGTTCAAGCGCCATCTAC ?
Given back: 5.59 RPM ratio (pull-down/input)

Asked: What do we get for GATGATTGTTCTCCCAGCTGATGAATTCAGCAGCTCGAGTAAACAAATTTTCCTAATCTTTCTGTTCAAGCGCCATCTAC ?
Given back: 0.994 RPM ratio (pull-down/input)

Asked: What do we get for GATGATTGTTCTCCCAGCTGATGAATTTTCTCGCTCGAGTAAACAAATTTTCCTAATCTTTCTGTTCAAGCGCCATCTAC ?
Given back: 0.241 RPM ratio (pull-down/input)
